conditions: buffer; pH 7.4; 6.0 h; 150.0 µM
In this section, each of the molecules is paired with its reported solubility kinetic.

MOLECULE	solubility kinetic
O=C1NCc2cc(-c3cc4c(ccn4Cc4ccncc4)c(N4CCOCC4)n3)ccc21	> 94 µg/mL
COc1cc(-c2nc(Nc3ccc(F)c(F)c3)c3ccccc3n2)ccn1	< 1 µg/mL
OCC(O)CCO/N=C1/C(c2c(O)[nH]c3ccccc23)=Nc2ccccc21 (stereo not given)	< 1 µg/mL
Cc1cc(NS(=O)(=O)c2ccc(NC(=O)Cc3ccc(Cl)c(F)c3)cc2)no1	> 63 µg/mL
Fc1ccc(Nc2nc(-c3ccccc3)nc3ccccc23)cc1F	< 1 µg/mL

----------
In this section, each of the compounds is paired with its reported solubility kinetic.
conditions: buffer; pH 7.4; 6.0 h; 150.0 µM

SMILES STR	solubility kinetic
O=C1NCc2ccc(-c3cc4c(ccn4Cc4cccnc4)c(C4=CCOCC4)n3)cc21	54 µg/mL
CN(C)CCCN1c2ccc(O)cc2Sc2ccc(Cl)cc21	> 49 µg/mL
Cc1ccc([S+](=O)([O-])n2cc(-c3ccc(-c4ccccc4)cc3)c3ccccc32)cc1	< 1 µg/mL
Cc1nn(CCc2nc(-c3ccccc3F)cs2)c2[nH]c(=O)cc(C(F)(F)F)c12	< 1 µg/mL
O=C(Nc1ccc(OC(F)(F)Cl)cc1)c1cnc(N2CC[C@@H](O)C2)c(-c2ccn[nH]2)c1	14.6 µg/mL
COc1ccccc1C(=O)N1CCc2cc(-c3nc(NC(=O)Cc4ccc5c(c4)OCO5)sc3C)ccc21	< 1 µg/mL
COc1ccc(S(=O)(=O)N(C(=O)C(C)C)c2ccc3oc(=O)sc3c2)cc1	8.8 µg/mL
CCOC(=O)c1ccc2c(c1)c(C(C)=O)c(C)n2-c1ccc(OC)cc1	< 1 µg/mL

----------
details: buffer; pH 7.4; 6.0 h; 150.0 µM
MEASUREMENT LABEL: solubility kinetic

MOLECULE	MEASUREMENT LABEL	RESULT
CCc1ccccc1-n1c(SCC(=O)Nc2ccc(C)cc2)nc2n[nH]c(C)c2c1=N	solubility kinetic	< 1 µg/mL
O=C1CCCC2=C1C(c1ccccc1C(F)(F)F)N=C(Nc1nc3ccccc3o1)N2 (stereo unspecified)	solubility kinetic	< 1 µg/mL
COc1ccc2c(c1)CCc1c-2n[nH]c1C(=O)N1CCc2c(nc3cc(-c4ccccc4)[nH]n3c2=O)C1	solubility kinetic	< 1 µg/mL
Fc1ccc(Nc2nc(-c3ccncc3)nc3ccccc23)cc1F	solubility kinetic	< 1 µg/mL
Cn1c(CN2CCCCC2)nc2cc(NC(=O)c3cccc(Br)c3)ccc21	solubility kinetic	> 63 µg/mL
CC1=C(C(=O)Nc2nnc(-c3ccccc3)s2)C(c2nn(C)cc2Cl)N=C(Nc2nc3ccccc3o2)N1 (stereo unspecified)	solubility kinetic	< 1 µg/mL

----------
In this section, each of the compounds is paired with its reported solubility kinetic.
conditions: buffer; pH 7.4; 6.0 h; 150.0 µM

COMPOUND	solubility kinetic
COc1ccc(-n2nc(C3CCCN(CC4CCCCC4)C3)[nH]c2=O)cc1 (configuration not stated)	> 37 µg/mL
COc1ccc(-c2nc(-c3c(C)noc3C)cc3c2cc(C)n3CCN(C)C)cc1OC	> 96 µg/mL
c1ccc2c(NC3CCCCC3)nc(-c3ccncc3)nc2c1	< 1 µg/mL
O=S(=O)(Nc1cccc2cccnc12)c1ccc(NCc2ccc(Br)cc2O)cc1	< 1 µg/mL
COc1cnccc1-c1nc(Nc2ccc(F)c(F)c2)c2ccccc2n1	> 54 µg/mL
c1ccc(-c2cc(Nc3nc(-c4ccncc4)nc4ccccc34)n[nH]2)cc1	< 1 µg/mL
CCN1C(=O)c2ccccc2[S@](=O)c2ccc(C(=O)N[C@H](C)c3ccc(Br)cc3)cc21	< 1 µg/mL
COc1cc(Cl)c(C)cc1NC(=O)CSc1ncc(S(=O)(=O)c2ccc(C(C)(C)C)cc2)c(=O)[nH]1	< 1 µg/mL
CCC1=Nc2cc(C(=O)NC3CCCC3)ccc2Sc2ccc(Cl)cc21	< 1 µg/mL
CCOc1cccc(C(=O)Nc2nc3c(s2)CC(C(C)(C)C)CC3)c1 (configuration not stated)	< 1 µg/mL
COc1ccc(C(=O)NC2CCN(c3cnn(CC4CC4)c(=O)c3)CC2)c(OC)n1	> 41 µg/mL
Oc1ccc(Nc2nc(-c3ccncc3)nc3ccccc23)cc1F	< 1 µg/mL
CC(C)(C)c1ccc(SC2=NS(=O)(=O)c3ccccc32)cc1	< 1 µg/mL
CCN(c1ccccc1)S(=O)(=O)c1c(C)nc2scc(C)n2c1=O	> 54 µg/mL
COc1ccc2c3c([nH]c2c1)C1CC2C(CC(O)C(OC)C2CO)CN1CC3 (configuration not stated)	> 57 µg/mL
Nc1c(C(=O)Nc2ccc(Cl)c(C(F)(F)F)c2)sc2nc3c(cc12)N1CCC3CC1	< 1 µg/mL
Nc1ncc(S(=O)(=O)N2CCOCC2)s1	> 37 µg/mL
Cc1ccc(S(=O)(=O)Nc2ccc(C(=O)Nc3nc(-c4ccccc4)cs3)c(Cl)c2)cc1	< 1 µg/mL
CCOc1ccc(CCNC(=O)c2cc3sccc3n2Cc2ccccc2)cc1OCC	< 1 µg/mL
COc1ccccc1NC(=O)C1=C(C)Nc2c(C(=O)Nc3cccc(C)c3)cnn2C1c1ccccc1Cl (configuration not stated)	< 1 µg/mL
COc1ccc(-c2nc(NC(C)c3ccccc3)c3ccccc3n2)cc1 (configuration not stated)	< 1 µg/mL
Cc1c(C(=O)NN2CCCCC2)nn(-c2ccc(Cl)cc2Cl)c1-c1ccc(Cl)cc1	< 1 µg/mL

----------
details: buffer; pH 7.4; 6.0 h; 150.0 µM

COMPOUND	solubility kinetic
Cc1onc(-c2ccc(F)cc2)c1COc1ccc(C(=O)N2CCS(=O)(=O)CC2)cn1	> 66 µg/mL
CCOc1ccc(C2c3c(oc4ccc(C)cc4c3=O)C(=O)N2CCCN(C)C)cc1 (stereo unspecified)	> 62 µg/mL
COc1cc2c(cc1NC(=O)COc1ccc(Cl)cc1)oc1ccccc12	< 1 µg/mL
CCCS(=O)(=O)c1nc(NC2CC2)cc(-c2ccc3c(ccn3C3CC(C)(C)NC(C)(C)C3)c2)n1	< 1 µg/mL
N#Cc1c(NC(=O)c2cccc3ccccc23)sc2c1CCCC2	< 1 µg/mL
O=C(Nc1nc(-c2ccccc2)cs1)c1ccncc1NS(=O)(=O)c1ccc(F)cc1Cl	< 1 µg/mL

----------
In this section, each of the molecules is paired with its reported solubility kinetic.
settings: buffer; pH 7.4; 6.0 h; 150.0 µM

MOLECULE	solubility kinetic
CC(C)n1cc(-c2ccc3c(c2)N(C)CC3)c2c(NS(=O)(=O)c3ccn(C)n3)ccnc21	36.7 µg/mL
CCc1ccc(NC(=O)c2[nH]c(C)c(C(C)=O)c2C)cc1[S+](=O)([O-])Nc1ccccc1C#N	40.3 µg/mL
Fc1cccc(F)c1Nc1nc(-c2ccncc2)nc2ccccc12	< 1 µg/mL
CCOc1ccc(CCN(C)C(=O)c2cc3sccc3n2Cc2ccccc2)cc1OCC	< 1 µg/mL
CC(C)Oc1ccc(CNC(=O)C2CCN(C(=O)N3CCOc4ccc(Cl)cc43)CC2)cc1	9.14 µg/mL
O=C(c1ccc(-c2ncc3cnc(-c4ccccc4)cn23)cc1)N1CCS(=O)(=O)CC1	65.1 µg/mL
Nc1ncnc2c1c(-c1cnc3[nH]ccc3c1)nn2C1CCCC1	> 47 µg/mL
CCOC(=O)N1CCN(Cc2nc3c(c(=O)n(C)c(=O)n3C)n2Cc2ccc(F)cc2)CC1	> 68 µg/mL
C=Cc1ccc(Cn2c(C(=O)O)c(CNCc3ccccc3)c3ccc(OC)cc32)cc1	5.42 µg/mL
Cc1ccc(S(=O)(=O)Nc2ncccc2C(=O)Nc2nc(-c3ccccc3)cs2)cc1	< 1 µg/mL
O=C(c1ccc2c(c1)ncn2-c1ccc(C(F)(F)F)cc1)N1CCCCC1	> 55 µg/mL
CSc1nnc2c3ccccc3n(CCc3ccccc3)c2n1	< 1 µg/mL
Fc1ccc(Nc2nc(-c3ccccc3)cc(-c3ccncc3)n2)cc1F	< 1 µg/mL
O=C1CCc2cc(S(=O)(=O)Nc3ccc(F)c(Cl)c3)c(F)cc2N1	13.4 µg/mL
Cc1ccccc1Nc1c(-c2ccccc2O)nc2sccn12	< 1 µg/mL
COc1ccc(Nc2cc(C)nc(-n3nc(C)cc3C)n2)cc1Cl	3.58 µg/mL
CCOc1ccc(N2CC(c3nc(-c4ccccn4)no3)CC2=O)cc1 (centres undefined)	> 35 µg/mL
CC(=O)c1c(C)[nH]c(C(=O)Nc2cccc(S(=O)(=O)N3CCCCCC3)c2)c1C	2.11 µg/mL
Cc1cnc(-c2ccccc2C(C)C)nc1NCC1CN(c2cccnc2)C1	36.3 µg/mL
CC(C)Oc1ccc(CCNC(=O)c2cc3sccc3n2Cc2ccccc2)cc1OC(C)C	< 1 µg/mL
O=C(c1csnn1)N1CCC2(CCCN(C(c3ccccc3)c3ccccc3)C2)CC1	< 1 µg/mL
Cc1cccc(Nc2nc(NCc3ccco3)c3ccccc3n2)c1.Cl	< 1 µg/mL
CC1Cc2cc(S(=O)(=O)NCc3ccc(N(C)C)cc3)ccc2N1C(=O)C1CCC1 (centres undefined)	3.08 µg/mL
CCCNC(=O)c1ccc2c(c1)N=C(C)c1c(C)ccc(C)c1S2	2.73 µg/mL
c1ccc(CNc2nc(NCc3ccccc3)c3ccccc3n2)cc1	< 1 µg/mL
Cc1ccc(S(=O)(=O)Nc2cnccc2C(=O)Nc2nc(-c3nc4ccccc4s3)cs2)cc1	2.11 µg/mL
CCOc1ccc(C2C(C(=O)Nc3ccccc3OC)=C(C)Nc3c(C(=O)Nc4cccc(C)c4)cnn32)cc1 (centres undefined)	< 1 µg/mL
CC(C)Oc1cccc(-c2ccnc(N3CCC(C(N)=O)CC3)n2)c1	8.28 µg/mL
COc1c(C)c2c(c(O)c1C/C=C(\C)CCC(=O)OCCN1CCOCC1)C(=O)OC2	> 64 µg/mL
Cc1nc([N+](=O)[O-])cn1-c1ccc([N+](=O)[O-])cc1	> 37 µg/mL
Cc1c(Cl)cccc1NC(=O)CNS(=O)(=O)c1cccs1	> 51 µg/mL
CC(C)c1ccc(OCc2nc3c(n2Cc2ccccc2)C(=O)N(CC2CC2)CCN3)cc1	< 1 µg/mL
CCOc1ccc(CCNC(=O)c2cc3ncccc3n2Cc2cccc(C)n2)cc1OCC	> 68 µg/mL
O=C(c1cc2ccccc2[nH]1)N1CCc2c(n(Cc3cccnc3)n(CCc3ccccc3)c2=O)C1	> 47 µg/mL
